These entries and their values trace back to ChEMBL document CHEMBL1961873.

Hi there, I'd appreciate the recorded inhibition for every entry that follows.
SYSTEM_NAME: Homeodomain-interacting protein kinase 4 (Homo sapiens) (UniProt Q8NE63);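 further: reported as mean inhibition, part of the GSK PKIS dataset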
Sequence (Q8NE63 whole entry): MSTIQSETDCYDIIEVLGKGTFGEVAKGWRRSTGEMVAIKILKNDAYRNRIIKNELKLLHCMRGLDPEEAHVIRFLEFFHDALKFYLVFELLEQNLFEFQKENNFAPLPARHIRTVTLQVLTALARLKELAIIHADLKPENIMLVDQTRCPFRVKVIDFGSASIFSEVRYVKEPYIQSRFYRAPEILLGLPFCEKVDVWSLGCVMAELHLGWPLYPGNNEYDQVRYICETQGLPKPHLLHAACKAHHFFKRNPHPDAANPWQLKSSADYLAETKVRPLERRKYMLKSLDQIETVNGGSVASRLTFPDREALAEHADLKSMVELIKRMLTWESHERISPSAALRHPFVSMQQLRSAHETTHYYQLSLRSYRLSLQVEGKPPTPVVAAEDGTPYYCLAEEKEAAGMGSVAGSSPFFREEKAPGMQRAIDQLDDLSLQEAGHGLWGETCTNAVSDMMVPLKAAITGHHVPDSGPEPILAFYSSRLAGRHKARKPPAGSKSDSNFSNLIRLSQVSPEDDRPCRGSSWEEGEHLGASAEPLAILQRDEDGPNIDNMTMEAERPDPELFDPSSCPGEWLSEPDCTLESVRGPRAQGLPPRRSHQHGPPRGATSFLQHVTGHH
TEST_CONTEXT: at 0.1 µM
Give bare numbers, in %.

COC(=O)Nc1nc2cc(Oc3cccc(NC(=O)Nc4cc(C(F)(F)F)ccc4F)c3)ccc2[nH]1 = -1.03
CCn1c(-c2nonc2N)nc2cnc(Oc3cccc(NC(=O)c4ccc(OCCN5CCOCC5)cc4)c3)cc21 = 0.11
NS(=O)(=O)c1cccc(-c2ccc3c(NC(=O)C4CC4)n[nH]c3c2)c1 = 0.1
O=C1NC(=O)C(c2cccc(Cl)c2)=C1Nc1ccc(O)c(Cl)c1 = -1.68
NC(=O)c1cccc(Nc2nccc(Nc3cccc4[nH]ncc34)n2)c1 = 3.21
CCn1c(-c2nonc2N)nc2cncc(C(=O)N3CC[C@H](N)C3)c21 = 0.99

Items follow; give inhibition for each.
1. Cc1cccc(-c2n[nH]cc2-c2ccc3ncccc3n2)n1
2. Nc1ncnc2occ(-c3ccc(NC(=O)Nc4cc(C(F)(F)F)cc(C(F)(F)F)c4)cc3)c12
3. COc1ccc(-c2nn3ncccc3c2-c2ccnc(Nc3ccc(Cl)c(C(F)(F)F)c3)n2)cc1
4. N#Cc1c(NC(=O)c2cccc3ccccc23)sc2c1CCCC2

Output:
1. -0.32
2. 14.4
3. 1.05
4. -1.01
